Assay: Cytotoxicity against mouse NIH/3T3 cells after 72 hrs by MTT assay
Type: cell-based, NIH3T3
Details: read-out: TD50
Listed here are molecules together with their documented CC50 at 72 h.
Parameter measured: CC50 at 72 h (µg/mL)

smiles_text=CCCCCCCCCCCCCNCC(=O)N(CCCCN)CC(=O)N(CC(N)=O)Cc1cccs1 data_value=65.9
smiles_text=CCCCCCCCCCCCCNCC(=O)N(CCCCN)CC(=O)N(CC(N)=O)Cc1ccco1 data_value=48.6
smiles_text=CCCCCCCCCCCCCNCC(=O)N(CCCC[N+](C)(C)C)CC(=O)N(CC(N)=O)Cc1cccs1 data_value=115

----------
Test: Selectivity index, ratio of TD50 for human HepG2 cells to MIC>90 for Cryptococcus neoformans H99S serotype A
Type: toxicity
Settings: read-out: Selectivity Index
Field 'label' (enum: met / not met). Set to met when selectivity ratio is strictly under 10; else not met.

smiles_text=CCCCCCCCCCCCCCCCNCC(=O)N(CCCCN)CC(=O)N(CC(N)=O)Cc1ccco1 answer_label="not met"
smiles_text=CCCCCCCCCCCCCNCC(=O)N(CCCCN)CC(=O)N(CC(N)=O)Cc1ncc[nH]1 answer_label=met
smiles_text=CCCCCCCCCCCCCNCC(=O)N(CCCCN)CC(=O)N(CC(N)=O)Cc1cccs1 answer_label="not met"
smiles_text=CCCCCCCCCCCCCNCC(=O)N(CCCCO)CC(=O)N(CC(N)=O)Cc1cccs1 answer_label=met
smiles_text=CCCCCCCCCCCCCNCC(=O)N(CCCCCCN)CC(=O)N(CC(N)=O)Cc1cccs1 answer_label="not met"
smiles_text=CCCCCCCCCCCCCNCC(=O)N(CCCCN)CC(=O)N(CCCn1ccnc1)CC(N)=O answer_label=met
smiles_text=CCCCCCCCCCCCCNCC(=O)N(CCCCN)CC(=O)N(CC(N)=O)Cc1ccccc1 answer_label="not met"
smiles_text=CCCCCCCCCCCCCNCC(=O)N(CCCN)CC(=O)N(CC(N)=O)Cc1cccs1 answer_label="not met"

----------
Listed here are compounds together with their documented selectivity ratio.
Assay: Selectivity index, ratio of TD50 for human HepG2 cells to MIC>90 for Cryptococcus neoformans H99S serotype A
Assay type: toxicity
Settings: read-out: Selectivity Index
Parameter measured: selectivity ratio

compound=CCCCCCCCCCCCCNCC(=O)N(CCCCN)CC(=O)N(CC(N)=O)Cc1ccco1 parameter_measured="selectivity ratio" data_value=9
compound=CCCCCCCCCCCCCNCC(=O)N(C)CC(=O)N(CC(N)=O)Cc1ccco1 parameter_measured="selectivity ratio" data_value=2
compound=CCCCCCCCCCCCCNCC(=O)N(CCCCN)CC(=O)N(CC(N)=O)Cc1ccncc1 parameter_measured="selectivity ratio" data_value=4
compound=CC(C)=CCC/C(C)=C/CC/C(C)=C/CNCC(=O)N(CCCCN)CC(=O)N(CC(N)=O)Cc1ccco1 parameter_measured="selectivity ratio" data_value=8
compound=CCCCCCCCCCCCCNCC(=O)N(CCCCN)CC(=O)N(CCc1c[nH]c2ccccc12)CC(N)=O parameter_measured="selectivity ratio" data_value=14
compound=CCCCCCCCCCCCCNCC(=O)N(CCCCN)CC(=O)N(C)CC(N)=O parameter_measured="selectivity ratio" data_value=1
compound=CCCCCCCCCCCCCNCC(=O)N(CCN)CC(=O)N(CC(N)=O)Cc1cccs1 parameter_measured="selectivity ratio" data_value=6
compound=CCCCCCCCCCCCCNCC(=O)N(CCCNC(=N)N)CC(=O)N(CC(N)=O)Cc1cccs1 parameter_measured="selectivity ratio" data_value=3
compound="CCCCCCCCCCCCCNCC(=O)N(CCCCN)CC(=O)N(CC(N)=O)CC1CCCO1 (centres undefined)" parameter_measured="selectivity ratio" data_value=14

----------
Experiment: Cytotoxicity against human HepG2 cells after 72 hrs by MTT assay
Type: cell-based
Conditions: read-out: TD50
Parameter measured: CC50 at 72 h (µg/mL)

smiles_text=CCCCCCCCCCCCCNCC(=O)N(CCCCO)CC(=O)N(CC(N)=O)Cc1cccs1 unit_annotation=µg/mL relation== data_value=31
smiles_text=CCCCCCCCCCCCCNCC(=O)N(CCCCN)CC(=O)N(CC(N)=O)Cc1ccco1 unit_annotation=µg/mL relation== data_value=56.2
smiles_text=CCCCCCCCCCCCCNCC(=O)N(CCCCN)CC(=O)N(CCc1c[nH]c2ccccc12)CC(N)=O unit_annotation=µg/mL relation== data_value=42.7
smiles_text=CNCC(=O)N(CCCCN)CC(=O)N(CC(N)=O)Cc1ccco1 unit_annotation=µg/mL relation=> data_value=800
smiles_text=CCCCCCCCCCCCCNCC(=O)N(CCN)CC(=O)N(CC(N)=O)Cc1cccs1 unit_annotation=µg/mL relation== data_value=40.5
